# subjectOfTest: human glutathione S-transferase A1-1 (GSTA1-1) (Homo sapiens, UniProt P08263)
# Construct: made in house; host or cells: E. coli
# Sequence (P08263 1-222): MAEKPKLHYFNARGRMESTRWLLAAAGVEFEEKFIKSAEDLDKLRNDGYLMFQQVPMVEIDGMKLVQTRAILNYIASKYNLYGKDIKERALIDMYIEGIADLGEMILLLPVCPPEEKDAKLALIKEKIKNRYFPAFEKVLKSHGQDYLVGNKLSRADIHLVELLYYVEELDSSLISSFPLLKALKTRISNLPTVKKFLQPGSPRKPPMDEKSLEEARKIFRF
# experimentSummary: CDNB assay of GST activity and inhibition, GST A1-1
# Format: biochemical
# runParameters: second value of the cell GSTP1-1/GSTA1-1, 20 nM GST
experimentalEndpoint: IC50 (µM)

(1) NC(CCC(=O)NC(CSCCCCCCCCCOC(=O)CCCCCCCSCC(NC(=O)CCC(N)C(=O)O)C(=O)NCC(=O)O)C(=O)NCC(=O)O)C(=O)O (stereo not drawn)
(2) C=C(CC)C(=O)c1ccc(OCC(=O)NCCCCCCCC(=O)NCc2cc(CNC(=O)CCCCCCCNC(=O)COc3ccc(C(=O)C(=C)CC)c(Cl)c3Cl)cc(C(N)=O)c2)c(Cl)c1Cl
Req: Hi! Which is lower in terms of IC50, the first one 1 or the second one 2 ? In your reply, give the label of the chosen option.
Resp: 2

Each recorded value in this set is attributed to patent US20050004038A1.
